- assay comment: in vivo
- experimental parameters: monkey, po, 20 mg/kg
endpoint name: AUC (ng·h/mL)
Just the number in ng·h/mL, nothing appended.

Exercise: So what does the record say about AUC for O=c1c2c(c1=O)N(CCP(=O)(O)O)CCCN2 ?
Solution: 1740

----------
- assay comment: in vivo
- experimental parameters: monkey, po, 100 mg/kg
endpoint name: bioavailability

Exercise: # query: bioavailability of entry O=c1c2c(c1=O)N(CCP(=O)(O)O)CCCN2
Solution: ~2.5%

----------
- assay comment: in vivo
- experimental parameters: monkey, po, 20 mg/kg
endpoint name: Cmax
In your response, the unit should come after the numeric value.

Exercise: Which Cmax value is on record for O=c1c2c(c1=O)N(CCP(=O)(O)O)CCCN2 [Compound A] ?
Solution: 147 ng/mL
